molecular target: Peptide 1: Biotin-…-[Tyr(PC)]-acid; experiment: scFv ELISA
Sequence (peptide, as listed by the source): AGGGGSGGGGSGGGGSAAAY
MEASUREMENT TYPE: OD450 (OD450)
Express your answer in OD450, writing the number without its unit.

// query OD450 value for entry PcOxP_DB01_G05 (scFv, V domains shown, scFv in periplasmic extract) VH: EVQLLESGGGLVQPGGSLRLSCAASGFTFSSYYMEWVRQAPGKGLEWVAASRNKANEYTTEYADSVKGRFTISRDNSKNTLYLQMNSLRAEDTAVYYCARDYYGSSYWYFDVWGQGTLVTVSS VL: DIVMTQSPDSLAVSLGERATINCTASESLYSSKHKVHYLAWYQQKPGQPPKLLIYGASNRYIGVPDRFSGSGSGTDFTLTISSLQAEDVAVYYCANFYSYPLTFGGGTKVEIK 0.69

Any idea what its OD450 is? The binder is PcOxP_DB01_B09 (scFv, V domains shown, scFv in periplasmic extract) VH: EVQLLESGGGLVQPGGSLRLSCAASGFTFSDYYMEWVRQAPGKGLEWVAASRNKANDYTTEYADSVKGRFTISRDNSKNTLYLQMNSLRAEDTAVYYCARDYYGSSYWYFDVWGQGTLVTVSS VL: DIQMTQSPSSLSASVGDRVTITCTASESLYSSKHKVHYLAWYQQKPGKAPKLLIYGASNRYTGVPSRFSGSGSGTDFTLTISSLQPEDFATYYCAQFYHYPLTFGGGTKVEIK 1

Query: OD450; subject: PcOxP_DB01_B10 (scFv, V domains shown, scFv in periplasmic extract) VH: EVQLLESGGGLVQPGGSLRLSCAASGFTFSDFYMEWVRQAPGKGLEWVAASRNKANDYTTTYADSVKGRFTISRDNSKNTLYLQMNSLRAEDTAVYYCARDYYGSSHWYFDVWGQGTLVTVSS VL: DIVMTQSPDSLAVSLGERATINCTASESLYSSKGKVHYLAWYQQKPGQPPKLLIYGASNRYIGVPDRFSGSGSGTDFTLTISSLQAEDVAVYYCVQFYSYPLTFGGGTKVEIK 0.52
